Target: HPV-11 E1-E2-DNA origin of replication complex (Human papillomavirus 11)
Construct: approximately 100-200 ng of purified E1
Experiment: E2-dependent E1 DNA binding assay (E1-E2 DNA assay)
Conditions: Table 4, racemic cis/cis isomer (form 1)
TEST READOUT: IC50

**Q:** Give the measured IC50 of CC(=O)c1ccc(NC(=O)C2C(/C=C/c3ccccc3)OC3(C(=O)c4ccccc4C3=O)C2C(=O)O)cc1 (stereo not shown) .
**A:** 5 to 50 µM

---

Target: HPV-11 E1-E2-DNA origin of replication complex (Human papillomavirus 11, UniProt P04015)
Construct: approximately 100-200 ng of purified E1
Sequence (P04015 whole entry, one chain of several): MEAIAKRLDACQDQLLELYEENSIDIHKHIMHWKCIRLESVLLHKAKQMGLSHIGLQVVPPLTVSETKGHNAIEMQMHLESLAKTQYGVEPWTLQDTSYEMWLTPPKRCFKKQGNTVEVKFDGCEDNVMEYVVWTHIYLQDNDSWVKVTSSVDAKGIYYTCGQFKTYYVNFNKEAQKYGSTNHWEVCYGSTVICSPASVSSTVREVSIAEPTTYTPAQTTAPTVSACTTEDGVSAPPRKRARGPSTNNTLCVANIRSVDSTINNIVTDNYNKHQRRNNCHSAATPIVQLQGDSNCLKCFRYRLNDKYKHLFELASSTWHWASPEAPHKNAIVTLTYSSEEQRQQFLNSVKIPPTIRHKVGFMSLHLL
Test: E2-dependent E1 DNA binding assay (E1-E2 DNA assay)
Settings: Table 1, racemic cis/cis isomer (form 1)
pIC50: −log10 of the molar value.
Listing: pIC50 of selected compounds

COMPOUND	TEST READOUT	OBSERVED VALUE
CC(=O)c1ccc(NC(=O)C2C(c3ccc(Cl)c(Cl)c3)OC3(C(=O)c4ccc5ccccc5c4C3=O)C2C(=O)O)cc1 (stereo not shown) [compound 1095]	pIC50	4.30 to 5.30
CCCCNC(=O)C1C(c2ccc(Cl)c(Cl)c2)OC2(C(=O)c3ccccc3C2=O)C1C(=O)O (stereo not shown)	pIC50	5.30 to 6.30
CC(=O)c1ccc(NC(=O)C2C(c3ccc(Cl)c(Cl)c3)OC3(C(=O)c4cc5ccccc5cc4C3=O)C2C(=O)O)cc1 (stereo not shown)	pIC50	4.30 to 5.30

Next item in the queue.
**Q:** What value of pIC50 has been recorded for this entry: CC(=O)c1ccc(NC(=O)C2C(c3ccc(Cl)c(Cl)c3)OC3(C(=O)c4ccc5ccccc5c4C3=O)C2C(=O)O)cc1 (stereo not shown) [compound 1091]
**A:** 4.30 to 5.30
